As shown below, each of these binders has a reported pKi value.
molecular target: T1, human plasma Kallikrein (human, UniProt P03952 20-638, limits assumed); test: enzyme inhibition assay
T1 construct: also called hPK; human PK
T1 sequence (P03952 20-638 limits assumed): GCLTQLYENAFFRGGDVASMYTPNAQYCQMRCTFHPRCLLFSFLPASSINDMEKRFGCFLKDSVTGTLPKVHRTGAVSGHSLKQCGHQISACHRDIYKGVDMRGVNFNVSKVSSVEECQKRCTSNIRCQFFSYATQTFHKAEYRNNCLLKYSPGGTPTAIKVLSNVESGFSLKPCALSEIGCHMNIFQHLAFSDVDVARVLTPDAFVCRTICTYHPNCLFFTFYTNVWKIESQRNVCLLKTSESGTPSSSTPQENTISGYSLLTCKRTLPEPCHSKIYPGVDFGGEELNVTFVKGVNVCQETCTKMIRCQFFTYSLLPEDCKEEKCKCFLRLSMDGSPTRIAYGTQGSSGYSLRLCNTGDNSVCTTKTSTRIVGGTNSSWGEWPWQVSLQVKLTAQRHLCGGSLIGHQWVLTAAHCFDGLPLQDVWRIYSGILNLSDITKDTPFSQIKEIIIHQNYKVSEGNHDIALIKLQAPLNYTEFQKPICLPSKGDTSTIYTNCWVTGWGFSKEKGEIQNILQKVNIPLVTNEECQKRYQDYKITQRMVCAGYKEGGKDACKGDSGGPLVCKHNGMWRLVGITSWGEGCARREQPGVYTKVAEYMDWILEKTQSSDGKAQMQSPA
pKi: −log10 of the molar value. Numbered stars: 1 amine (or outer) side, 2 acyl side, 3 side chain; on linkers, the order of the positions; unused ones are H or OH. Bridge positions count the residues as written; N and C are the ends. Square brackets hold non-standard residues; d marks the D form. TBMB = c1c(C[*:1])cc(C[*:3])cc1C[*:2]; Pen = CC(C)(S)[C@H](N)C(=O)O; Dpg = CCCC(N)(CCC)C(=O)O; Aib = CC(C)(N)C(=O)O; βAla = NCCC(=O)O
MEASURE: pKi

INSERT INTO results (binder, measure, measured_number) VALUES
  ('Ac-CSWPAR[Pen]LHQDLC-NH2 (linker 1-7-13 via TBMB; SMILES CC(=O)N[C@H]1CSCc2cc3cc(c2)CSC(C)(C)[C@H](NC(=O)[C@H](CCCNC(=N)N)NC(=O)[C@H](C)NC(=O)[C@@H]2CCCN2C(=O)[C@H](Cc2c[nH]c4ccccc24)NC(=O)[C@H](CO)NC1=O)C(=O)N[C@@H](CC(C)C)C(=O)N[C@@H](Cc1c[nH]cn1)C(=O)N[C@@H](CCC(N)=O)C(=O)N[C@@H](CC(=O)O)C(=O)N[C@@H](CC(C)C)C(=O)N[C@H](C(N)=O)CSC3) [Ac-(06-34-18) Cys2ToPen2]', 'pKi', 5.67),
  ('Ac-CSWP[Aib]RCLHQDLC-NH2 (linker 1-7-13 via TBMB; SMILES CC(=O)N[C@H]1CSCc2cc3cc(c2)CSC[C@H](NC(=O)[C@H](CCCNC(=N)N)NC(=O)C(C)(C)NC(=O)[C@@H]2CCCN2C(=O)[C@H](Cc2c[nH]c4ccccc24)NC(=O)[C@H](CO)NC1=O)C(=O)N[C@@H](CC(C)C)C(=O)N[C@@H](Cc1c[nH]cn1)C(=O)N[C@@H](CCC(N)=O)C(=O)N[C@@H](CC(=O)O)C(=O)N[C@@H](CC(C)C)C(=O)N[C@H](C(N)=O)CSC3) [Ac-(06-34-18) Aib4]', 'pKi', 6.54),
  ('Ac-CSWP[βAla]RCLHQDLC-NH2 (linker 1-7-13 via TBMB; SMILES CC(=O)N[C@H]1CSCc2cc3cc(c2)CSC[C@H](NC(=O)[C@H](CCCNC(=N)N)NC(=O)CCNC(=O)[C@@H]2CCCN2C(=O)[C@H](Cc2c[nH]c4ccccc24)NC(=O)[C@H](CO)NC1=O)C(=O)N[C@@H](CC(C)C)C(=O)N[C@@H](Cc1c[nH]cn1)C(=O)N[C@@H](CCC(N)=O)C(=O)N[C@@H](CC(=O)O)C(=O)N[C@@H](CC(C)C)C(=O)N[C@H](C(N)=O)CSC3) [Ac-(06-34-18) β-Ala4]', 'pKi', 4.76),
  ('Ac-C[Dpg]WPARCLHQDLC-NH2 (linker 1-7-13 via TBMB; SMILES CCCC1(CCC)NC(=O)[C@@H](NC(C)=O)CSCc2cc3cc(c2)CSC[C@H](NC(=O)[C@H](CCCNC(=N)N)NC(=O)[C@H](C)NC(=O)[C@@H]2CCCN2C(=O)[C@H](Cc2c[nH]c4ccccc24)NC1=O)C(=O)N[C@@H](CC(C)C)C(=O)N[C@@H](Cc1c[nH]cn1)C(=O)N[C@@H](CCC(N)=O)C(=O)N[C@@H](CC(=O)O)C(=O)N[C@@H](CC(C)C)C(=O)N[C@H](C(N)=O)CSC3) [Ac-(06-34-18) Dpg1]', 'pKi', 8.96);
